Target: human S1P1 receptor (Homo sapiens)
Construct: membranes used
Sequence (P21453 whole entry): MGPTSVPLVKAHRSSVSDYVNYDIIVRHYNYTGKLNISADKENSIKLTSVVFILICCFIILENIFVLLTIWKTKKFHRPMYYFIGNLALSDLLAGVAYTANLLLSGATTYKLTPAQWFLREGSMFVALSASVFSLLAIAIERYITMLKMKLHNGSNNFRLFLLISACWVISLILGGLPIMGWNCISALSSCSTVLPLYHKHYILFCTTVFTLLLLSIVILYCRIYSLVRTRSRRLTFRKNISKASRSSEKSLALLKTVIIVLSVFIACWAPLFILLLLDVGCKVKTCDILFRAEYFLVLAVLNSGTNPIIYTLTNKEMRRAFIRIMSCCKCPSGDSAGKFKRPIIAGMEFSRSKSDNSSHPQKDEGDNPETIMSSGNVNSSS
Test: GTP γ35S binding assay for S1P1 activity
Conditions: membranes of cells stably expressing the S1P1 receptor, test compounds 0.08 to 5,000 nM, 30 min at 25° C.
readoutLabel: EC50 (nM)

Solved entries:
compound	EC50 / nM
Cc1ccc(CC(CCCCSc2ccc(CNCCC(=O)O)cc2)c2cccc(Cl)c2)cc1C (centres unmarked)	159
Cc1ccc(CC(CCCSc2ccc(CNCCCP(=O)(O)O)cc2)c2cccc(Cl)c2)cc1C (centres unmarked)	0.76
Cc1ccc(CC(CCC[S+]([O-])c2ccc(CNCCC(=O)O)cc2)c2cccc(Cl)c2)cc1C (centres unmarked)	81.7

(P) Cc1ccc(CC(CCCC[S+]([O-])c2ccc(CNCCC(=O)O)cc2)c2cccc(Cl)c2)cc1C (centres unmarked)
(Q) Cc1ccc(CC(CCCSc2ccc(CNCCCP(=O)(O)O)cc2)c2cc(F)cc(F)c2)cc1C (centres unmarked)
Given P and given Q , which shows the smaller recorded EC50? Provide the label of your selected option as the answer.
Q
(Q: 2.65 nM, P: 631 nM)
